Reported IC50 values for a set of compounds
tgt: human Prostanoid EP4 Receptor (EP4) (Homo sapiens, UniProt P35408)
Construct: membranes prepared by differential centrifugation
Sequence (P35408 whole entry): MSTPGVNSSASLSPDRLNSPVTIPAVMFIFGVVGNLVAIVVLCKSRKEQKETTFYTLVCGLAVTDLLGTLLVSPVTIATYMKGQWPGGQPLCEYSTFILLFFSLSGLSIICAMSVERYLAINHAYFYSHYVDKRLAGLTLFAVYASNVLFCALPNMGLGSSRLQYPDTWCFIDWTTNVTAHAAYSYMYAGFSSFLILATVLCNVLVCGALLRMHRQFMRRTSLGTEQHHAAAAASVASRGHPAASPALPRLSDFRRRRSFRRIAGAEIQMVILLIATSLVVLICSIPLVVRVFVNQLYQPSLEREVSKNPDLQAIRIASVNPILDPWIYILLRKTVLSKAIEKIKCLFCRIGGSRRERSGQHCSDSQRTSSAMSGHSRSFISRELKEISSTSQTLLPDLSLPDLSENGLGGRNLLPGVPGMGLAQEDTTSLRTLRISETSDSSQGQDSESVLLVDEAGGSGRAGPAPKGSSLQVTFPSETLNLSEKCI
method-summary: Prostanoid EP4 FLIPR assay (calcium flux, PGE2 addition)
details: HEK293 cells transfected with human EP4, Fluo-4 calcium dye

Please review the entries below; each comes with its answer.
CCn1nc(C(=O)N[C@@H](C)c2ccc(C(=O)O)cc2)c2c(Cc3ccc(C(F)(F)F)cc3)cccc21 [Compound 9] | < 100 nM
O=C(NC1CC2(C1)CC(C(=O)O)C2)c1cnn2cccc(Cc3cc4ccccc4cn3)c12 (single isomer, unassigned) [Compound 13A] | 100 to 499 nM
C[C@H](NC(=O)c1cnn2cccc(Cc3cc4ccccc4cn3)c12)c1ccc(C(=O)O)cc1 [Compound 12] | < 100 nM
C[C@H](NC(=O)c1n[nH]c2cccc(Cc3ccc(C(F)(F)F)cc3)c12)c1ccc(C(=O)O)cc1 [Compound 7] | < 100 nM
O=C(O)CC12CC(NC(=O)c3n[nH]c4cccc(Cc5ccc(C(F)(F)F)cc5)c34)(C1)C2 [Compound 18] | < 100 nM

Ask: Indicate the recorded IC50 value for this compound: O=C(NC1CC2(C1)CC(C(=O)O)C2)c1n[nH]c2cccc(Cc3ccc(C(F)(F)F)cc3)c12 (centres unmarked) [Compound 8]
Reply: < 100 nM

Ask: Indicate the recorded IC50 value for this compound: O=C(N[C@H]1CC2(C1)C[C@H](C(=O)O)C2)c1cnn2cccc(Cc3ccc(C(F)(F)F)cc3)c12 (single isomer, unassigned) [Compound 14A]
Reply: 100 to 499 nM

Ask: Indicate the recorded IC50 value for this compound: C[C@H](NC(=O)c1cnn2cccc(Cc3cccc(C(F)(F)F)c3)c12)c1ccc(C(=O)O)cc1 [Compound 3]
Reply: < 100 nM

====

Notes on Ki obtained with human Prostanoid EP4 Receptor (EP4) (Homo sapiens).

Please review the entries below; each comes with its answer.
O=C(NC1CC2(C1)CC(C(=O)O)C2)c1cnn2cccc(Cc3cc4ccccc4cn3)c12 (single isomer, unassigned) [Compound 13B] | < 100 nM
O=C(NC1CC2(C1)CC(C(=O)O)C2)c1cn(CCF)c2nccc(Cc3ccc(C(F)(F)F)cc3)c12 (centres unmarked) [Compound 48] | < 100 nM
O=C(Nc1ccc(C2(C(=O)O)CC2)cc1)c1cnn2cccc(Cc3ccc(C(F)(F)F)cc3)c12 [Compound 31] | > 500 nM
O=C(NC[C@H]1CC[C@H](C(=O)O)CC1)c1cnn2cccc(Cc3ccc(C(F)(F)F)cc3)c12 [Compound 40] | < 100 nM
C[C@H](NC(=O)c1cn(CCF)c2cccc(Cc3ccc(C(F)(F)F)cc3)c12)c1ccc(C(=O)O)cc1 [Compound 43] | < 100 nM
O=C(O)CC12CC(NC(=O)c3cnn4cccc(Cc5ccc(C(F)(F)F)cc5)c34)(C1)C2 [Compound 15] | < 100 nM
O=C(NC1CC2(C1)CC(C(=O)O)C2)c1cnn2cccc(Cc3ccc(C(F)(F)F)cc3)c12 (centres unmarked) [Compound 2] | < 100 nM
CCn1cc(C(=O)NC23CC(CC(=O)O)(C2)C3)c2c(Cc3ccc(C(F)(F)F)cc3)ccnc21 [Compound 53] | < 100 nM
O=C(NC12CCC(C(=O)O)(CC1)CC2)c1cnn2cccc(Cc3ccc(C(F)(F)F)cc3)c12 [Compound 36] | 100 to 499 nM
CCn1nc(C(=O)N[C@H]2CC3(C2)C[C@H](C(=O)O)C3)c2c(Cc3ccc(C(F)(F)F)cc3)cccc21 (single isomer, unassigned) [Compound 11A] | 100 to 499 nM

Next:
Ask: Indicate the recorded Ki value for this compound: CCn1nc(C(=O)N[C@@H](C)c2ccc(C(=O)O)cc2)c2c(Cc3ccc(C(F)(F)F)cc3)cccc21 [Compound 9]
Reply: < 100 nM

====

tgt: human Prostanoid EP4 Receptor (EP4) (Homo sapiens, UniProt P35408)
reported-property: Ki

CC(C)n1nc(C(=O)NC23CC(CC(=O)O)(C2)C3)c2c(Cc3ccc(C(F)(F)F)cc3)cccc21 [Compound 22] | > 500 nM
O=C(N[C@H]1CC2(C1)C[C@H](C(=O)O)C2)c1cn(CCF)c2cccc(Cc3ccc(C(F)(F)F)cc3)c12 (stereo partly shown) [Compound 44] | < 100 nM
CCn1cc(C(=O)N[C@H]2CC[C@H](CC(=O)O)CC2)c2c(Cc3ccc(C(F)(F)F)cc3)cccc21 [Compound 56] | < 100 nM
O=C(NC[C@H]1CC[C@H](C(=O)O)CC1)c1cn(CCF)c2nccc(Cc3ccc(C(F)(F)F)cc3)c12 [Compound 58] | < 100 nM
O=C(N[C@H]1CC2(C1)C[C@H](C(=O)O)C2)c1cnn2cccc(Cc3ccc(C(F)(F)F)cc3)c12 (single isomer, unassigned) [Compound 14A] | 100 to 499 nM
O=C(O)CC12CC(NC(=O)c3ncn4cccc(Cc5ccc(C(F)(F)F)cc5)c34)(C1)C2 [Compound 17] | 100 to 499 nM

Ask: Consider the molecule O=C(NCC12CCC(C(=O)O)(CC1)C2)c1cnn2cccc(Cc3ccc(C(F)(F)F)cc3)c12 [Compound 50] tested on human Prostanoid EP4 Receptor (EP4) (Homo sapiens, UniProt P35408); state its Ki.
Reply: > 500 nM

Ask: Consider the molecule CCn1nc(C(=O)NC23CC(CC(=O)O)(C2)C3)c2c(Cc3ccc(C(F)(F)F)cc3)cccc21 [Compound 19] tested on human Prostanoid EP4 Receptor (EP4) (Homo sapiens, UniProt P35408); state its Ki.
Reply: 100 to 499 nM

Ask: Consider the molecule CC(C)n1nc2cccc(Cc3ccc(C(F)(F)F)cc3)c2c1C(=O)N[C@@H](C)c1ccc(C(=O)O)cc1 [Compound 29] tested on human Prostanoid EP4 Receptor (EP4) (Homo sapiens, UniProt P35408); state its Ki.
Reply: < 100 nM

Ask: Consider the molecule CCn1cc(C(=O)N[C@@H](C)c2ccc(C(=O)O)cc2)c2c(Cc3ccc(C(F)(F)F)cc3)cccc21 [Compound 42] tested on human Prostanoid EP4 Receptor (EP4) (Homo sapiens, UniProt P35408); state its Ki.
Reply: < 100 nM

Ask: Consider the molecule C[C@H](NC(=O)c1cn(CCF)c2nccc(Cc3ccc(C(F)(F)F)cc3)c12)c1ccc(C(=O)O)cc1 [Compound 47] tested on human Prostanoid EP4 Receptor (EP4) (Homo sapiens, UniProt P35408); state its Ki.
Reply: < 100 nM

====

Reported pIC50 values for a set of compounds
tgt: human Prostanoid EP2 Receptor (EP2) (Homo sapiens)
Sequence (P43116 whole entry): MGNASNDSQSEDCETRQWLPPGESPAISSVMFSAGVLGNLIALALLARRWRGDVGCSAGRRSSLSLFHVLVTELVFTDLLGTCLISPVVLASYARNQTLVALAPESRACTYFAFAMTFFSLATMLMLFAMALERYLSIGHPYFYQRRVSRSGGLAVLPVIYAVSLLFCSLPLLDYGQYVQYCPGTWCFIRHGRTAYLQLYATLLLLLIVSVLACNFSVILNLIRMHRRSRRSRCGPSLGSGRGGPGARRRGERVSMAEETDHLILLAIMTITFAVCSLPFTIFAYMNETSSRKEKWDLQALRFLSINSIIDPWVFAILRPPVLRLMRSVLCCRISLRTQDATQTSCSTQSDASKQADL
method-summary: Prostanoid EP2 FLIPR assay (calcium flux, PGE2 addition)
details: CHO cells transfected with human EP2, Fluo-4 calcium dye
pIC50: −log10 of the molar value.

Ask: Indicate the recorded pIC50 value for this compound: O=C(N[C@H]1CC2(C1)C[C@H](C(=O)O)C2)c1cnn2cccc(Cc3ccc(C(F)(F)F)cc3)c12 (single isomer, unassigned) [Compound 14A]
Reply: < 6.00

Ask: Indicate the recorded pIC50 value for this compound: C[C@H](NC(=O)c1cnn2cccc(Cc3ccc(C(F)(F)F)cc3)c12)c1ccc(C(=O)O)cc1
Reply: < 6.00

Ask: Indicate the recorded pIC50 value for this compound: CCn1nc2cccc(Cc3ccc(C(F)(F)F)cc3)c2c1C(=O)N[C@@H](C)c1ccc(C(=O)O)cc1
Reply: < 6.00

====

pKi: −log10 of the molar value.
Notes on pKi obtained with human Prostanoid EP4 Receptor (EP4) (Homo sapiens).

Please review the entries below; each comes with its answer.
O=C(O)CC12CC(NC(=O)c3cn(CCF)c4cccc(Cc5ccc(C(F)(F)F)cc5)c34)(C1)C2 | > 7.00
O=C(O)c1ccc(C2(NC(=O)c3cnn4cccc(Cc5ccc(C(F)(F)F)cc5)c34)CC2)cc1 | > 7.00
O=C(N[C@H]1CC2(C1)C[C@H](C(=O)O)C2)c1cnn2cccc(Cc3ccc(C(F)(F)F)cc3)c12 (single isomer, unassigned) [Compound 14B] | > 7.00

Ask: Consider the molecule CCn1cc(C(=O)NC[C@H]2CC[C@H](C(=O)O)CC2)c2c(Cc3ccc(C(F)(F)F)cc3)cccc21 tested on human Prostanoid EP4 Receptor (EP4) (Homo sapiens); state its pKi.
Reply: > 7.00

Ask: Consider the molecule C[C@H](NC(=O)c1ncn2cccc(Cc3ccc(C(F)(F)F)cc3)c12)c1ccc(C(=O)O)cc1 tested on human Prostanoid EP4 Receptor (EP4) (Homo sapiens); state its pKi.
Reply: 6.30 to 7.00

Ask: Consider the molecule CCn1nc2cccc(Cc3ccc(C(F)(F)F)cc3)c2c1C(=O)N[C@@H](C)c1ccc(C(=O)O)cc1 tested on human Prostanoid EP4 Receptor (EP4) (Homo sapiens); state its pKi.
Reply: 6.30 to 7.00

Ask: Consider the molecule CCn1nc(C(=O)N[C@H]2CC3(C2)C[C@H](C(=O)O)C3)c2c(Cc3ccc(C(F)(F)F)cc3)cccc21 (single isomer, unassigned) [Compound 11B] tested on human Prostanoid EP4 Receptor (EP4) (Homo sapiens); state its pKi.
Reply: > 7.00

Ask: Consider the molecule CCn1cc(C(=O)N[C@@H](C)c2ccc(C(=O)O)cc2)c2c(Cc3ccc(C(F)(F)F)cc3)ccnc21 tested on human Prostanoid EP4 Receptor (EP4) (Homo sapiens); state its pKi.
Reply: > 7.00

Ask: Consider the molecule C[C@H](NC(=O)c1cnn2cccc(Cc3cccc(C(F)(F)F)c3)c12)c1ccc(C(=O)O)cc1 tested on human Prostanoid EP4 Receptor (EP4) (Homo sapiens); state its pKi.
Reply: > 7.00

Ask: Consider the molecule O=C(O)Cc1ccc(NC(=O)c2cnn3cccc(Cc4ccc(C(F)(F)F)cc4)c23)cc1 tested on human Prostanoid EP4 Receptor (EP4) (Homo sapiens); state its pKi.
Reply: 6.30 to 7.00

Ask: Consider the molecule O=C(NC1CC2(C1)CC(C(=O)O)C2)c1cnn2cccc(Cc3cc4ccccc4cn3)c12 (single isomer, unassigned) [Compound 13A] tested on human Prostanoid EP4 Receptor (EP4) (Homo sapiens); state its pKi.
Reply: < 6.30

Ask: Consider the molecule O=C(O)CC12CC(NC(=O)c3cn(CCF)c4nccc(Cc5ccc(C(F)(F)F)cc5)c34)(C1)C2 tested on human Prostanoid EP4 Receptor (EP4) (Homo sapiens); state its pKi.
Reply: > 7.00

Ask: Consider the molecule O=C(NC1CC2(C1)CC(C(=O)O)C2)c1n[nH]c2cccc(Cc3ccc(C(F)(F)F)cc3)c12 (centres unmarked) tested on human Prostanoid EP4 Receptor (EP4) (Homo sapiens); state its pKi.
Reply: > 7.00

Ask: Consider the molecule O=C(NC1CC2(C1)CC(C(=O)O)C2)c1cnn2cccc(Cc3cccc(C(F)(F)F)c3)c12 (centres unmarked) tested on human Prostanoid EP4 Receptor (EP4) (Homo sapiens); state its pKi.
Reply: > 7.00

Ask: Consider the molecule CC(C)Cn1nc(C(=O)N[C@@H](C)c2ccc(C(=O)O)cc2)c2c(Cc3ccc(C(F)(F)F)cc3)cccc21 tested on human Prostanoid EP4 Receptor (EP4) (Homo sapiens); state its pKi.
Reply: > 7.00

Ask: Consider the molecule O=C(O)CC1CCC(NC(=O)c2cnn3cccc(Cc4ccc(C(F)(F)F)cc4)c23)C1 (centres unmarked) tested on human Prostanoid EP4 Receptor (EP4) (Homo sapiens); state its pKi.
Reply: > 7.00

Ask: Consider the molecule O=C(O)CC12CC(NC(=O)c3cnn4cccc(Cc5cccc(C(F)(F)F)c5)c34)(C1)C2 tested on human Prostanoid EP4 Receptor (EP4) (Homo sapiens); state its pKi.
Reply: < 6.30

Hello, the source for this data is patent US20220324803A1, in case you need it.
